# System: Oct4-luc
# measurementProtocol: Oct4-luc reporter induction by OAC compounds
# Assay type: cell-based
readoutKind: Oct4-luc fold Induction (fold)

Consider the worked cases shown below.
O=C(Nc1ccc2[nH]ncc2c1)c1cccc(Cl)c1 : 1.65
O=C(Nc1ccc2[nH]ncc2c1)c1cccc(C(F)(F)F)c1 : 1.48

a = O=C(Nc1ccc2[nH]ncc2c1)c1ccc(F)cc1
b = COc1ccc(C(=O)Nc2ccc3[nH]ncc3c2)cc1
Input pair: a , b . Output: entry with lower Oct4-luc fold Induction. Please identify the chosen entry by its label.
a
(a: 2.2 fold, b: 3.18 fold)

Values from patent US11413286B2
